Assay: PORTICO PK substudy: steady-state plasma macitentan and ACT-132577
Type: in vivo, human
Settings: human, plasma, oral, one dosing interval, macitentan 10 mg o.d., PoPH patients, read-out: AUCT, geometric mean (95% confidence interval)
measured parameter: AUC(0-t) (ng·h/mL)

> print(dat)
                                 cpd.smiles  measured.parameter  unit.abbrev  experimental.value
1  CCCNS(=O)(=O)Nc1ncnc(OCCOc2ncc(Br)cn2)c1-c1ccc(Br)cc1            AUC(0-t)      ng·h/mL                6660

---

Item-by-item account of Tmax
Test: PORTICO PK substudy: steady-state plasma macitentan and ACT-132577
Type: in vivo, human
Settings: human, plasma, oral, macitentan 10 mg o.d., PoPH patients, PKS 10 patients, read-out: tmax, median (range)
measured parameter: Tmax (h)

> print(dat)
                                 cpd.smiles  unit.abbrev  experimental.value
1  NS(=O)(=O)Nc1ncnc(OCCOc2ncc(Br)cn2)c1-c1ccc(Br)cc1            h                 6.5
2  CCCNS(=O)(=O)Nc1ncnc(OCCOc2ncc(Br)cn2)c1-c1ccc(Br)cc1            h                 6.5

Hey, just so you know, these numbers are from patent US20220257595A1.
